- ASSAY_SYSTEM: Fyn (UniProt P06241)
- Sequence (P06241 whole entry, looked up): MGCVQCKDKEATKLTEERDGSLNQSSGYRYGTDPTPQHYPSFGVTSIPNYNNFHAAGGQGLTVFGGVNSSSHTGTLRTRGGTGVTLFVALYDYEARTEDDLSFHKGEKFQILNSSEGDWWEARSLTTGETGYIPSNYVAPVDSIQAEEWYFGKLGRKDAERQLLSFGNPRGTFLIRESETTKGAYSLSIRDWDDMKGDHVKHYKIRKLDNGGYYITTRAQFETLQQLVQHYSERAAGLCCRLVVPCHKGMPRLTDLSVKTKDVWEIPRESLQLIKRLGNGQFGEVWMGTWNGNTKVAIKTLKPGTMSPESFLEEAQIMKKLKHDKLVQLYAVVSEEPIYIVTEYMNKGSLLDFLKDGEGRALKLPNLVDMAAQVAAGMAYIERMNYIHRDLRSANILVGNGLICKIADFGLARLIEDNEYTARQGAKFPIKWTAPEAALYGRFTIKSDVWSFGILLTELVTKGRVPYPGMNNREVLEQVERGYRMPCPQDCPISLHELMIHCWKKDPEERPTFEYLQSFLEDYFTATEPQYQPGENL
- ASSAY_INFO: phosphorylation enrichment, bacterial display (enrichment ratio); higher = better substrate or ligand; peptides without Tyr show the background;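 note: 11-residue human phosphosite peptides and single-mutation variants displayed on the E. coli surface, counted by deep sequencing, each peptide's frequency after selection divided by its frequency in the unselected input library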;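 note: frequency after pTyr selection over input frequency; kinase dosed for 20-30% of maximal phosphorylation in three min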
Kind request: treat 0.6 as inclusive, so phosphorylation enrichment at 0.6 or higher is fulfilled, anything lower is not fulfilled.

Given LRNIDYYRLDG [ATRX_Y2083] , state whether its phosphorylation enrichment is at least 0.6. fulfilled

Given FVSLIYTNFEA [GSTP1_Y109_I105V_YF] , state whether its phosphorylation enrichment is at least 0.6. fulfilled

Given PDMHSYVVRYN [GRIN2D_Y732_M733V] , state whether its phosphorylation enrichment is at least 0.6. not fulfilled

Given DQLVKYGVNPG [TMPO_Y127] , state whether its phosphorylation enrichment is at least 0.6. not fulfilled

Given TSNQEYLDVSM [FGFR1_Y766_L769V] , state whether its phosphorylation enrichment is at least 0.6. not fulfilled

Given ECIEFYELDKK [PMM2_Y145_R141C] , state whether its phosphorylation enrichment is at least 0.6. not fulfilled

Given MRAIIYNSSTA [PLEKHA7_Y243_L241I] , state whether its phosphorylation enrichment is at least 0.6. not fulfilled

Given GNLQEYLTRHV [TGFBR2_Y336] , state whether its phosphorylation enrichment is at least 0.6. not fulfilled

Given QRASDYYSQQM [GBP6_Y333_A331S] , state whether its phosphorylation enrichment is at least 0.6. not fulfilled

Given EEQKKYFNATK [SCN5A_Y1494_M1498T_YF] , state whether its phosphorylation enrichment is at least 0.6. not fulfilled

Given NTQRPYFKGGG [TYROBP_Y111_YF] , state whether its phosphorylation enrichment is at least 0.6. not fulfilled

Given QYNMQYSSSAA [ERBB2IP_Y981_I979M] , state whether its phosphorylation enrichment is at least 0.6. fulfilled

Given RSSGGYEPRGR [FUS_Y239] , state whether its phosphorylation enrichment is at least 0.6. not fulfilled

Given VNKLVYENING [FRS2_Y306] , state whether its phosphorylation enrichment is at least 0.6. fulfilled

Given NLFIEYPTGSG [IRF2BPL_Y423_K418N] , state whether its phosphorylation enrichment is at least 0.6. not fulfilled

Given LGRGKYSEVFE [CSNK2A1_Y50] , state whether its phosphorylation enrichment is at least 0.6. fulfilled

Given YSMGCYEFSLG [HMGCL_Y198_I200F] , state whether its phosphorylation enrichment is at least 0.6. fulfilled

Given FQLENYCNGGG [INS_Y108_YF] , state whether its phosphorylation enrichment is at least 0.6. fulfilled

Given KEAVLYPHLPP [SQSTM1_Y383_A381V] , state whether its phosphorylation enrichment is at least 0.6. not fulfilled

Given RVLKLYGCSPS [ASTL_Y279] , state whether its phosphorylation enrichment is at least 0.6. fulfilled

Given KENITYMKSEQ [L1TD1_Y24_R27S] , state whether its phosphorylation enrichment is at least 0.6. not fulfilled

Given SVTCTFSPALN [TP53_Y126_Y126F] , state whether its phosphorylation enrichment is at least 0.6. not fulfilled

Given ITGNGYYFRVF [MYBPC3_Y1135_I1131T] , state whether its phosphorylation enrichment is at least 0.6. not fulfilled

Given AIFWRYSKFFD [SH3PXD2B_Y45_R43W_YF] , state whether its phosphorylation enrichment is at least 0.6. not fulfilled

Given FSEVRYMKEPF [HIPK4_Y170_V171M_YF] , state whether its phosphorylation enrichment is at least 0.6. not fulfilled

Given DPTFGYEDFTR [SESN2_Y323] , state whether its phosphorylation enrichment is at least 0.6. not fulfilled

###

Give measured phosphorylation enrichment for each item. Keep answers brief.
- Tested on: AncSZ
- ASSAY_INFO: phosphorylation enrichment, bacterial display (enrichment ratio); higher = better substrate or ligand; peptides without Tyr show the background
// response body must contain only the number

phosphorylation enrichment lookup needed for RGERPYGGGGG [FUS_Y526_R522G] , thanks. 0.487

phosphorylation enrichment lookup needed for DPTFGYEDFTR [SESN2_Y323] , thanks. 1.08

phosphorylation enrichment lookup needed for GISDEYHVIQH [GCDH_Y398_R402Q] , thanks. 1.64

phosphorylation enrichment lookup needed for PQAVTYAKVKH [LILRB4_Y360] , thanks. 0.405

phosphorylation enrichment lookup needed for QHNPEYVQQAS [LRRC7_Y1058] , thanks. 0.843

phosphorylation enrichment lookup needed for VVLVSYVPSSQ [SH2B1_Y624] , thanks. 0.784

phosphorylation enrichment lookup needed for YQNGMYGLHQD [SGSH_Y89_H84Y] , thanks. 0.874

phosphorylation enrichment lookup needed for YAADYYKLLGN [ROR2_Y646] , thanks. 1.1

phosphorylation enrichment lookup needed for SENPKYPEVGD [TMEM43_Y233] , thanks. 1.01

phosphorylation enrichment lookup needed for PDGHEYIFVDP [PDGFRA_Y572_YF] , thanks. 2.01

phosphorylation enrichment lookup needed for SIKDKHVTALY [KCNH2_Y611_Y611H] , thanks. 0.587

phosphorylation enrichment lookup needed for RELGKYGLQAY [ALDH2_Y497_E496K] , thanks. 0.683

phosphorylation enrichment lookup needed for ISRASYYRKGG [ALK_Y1282_Y1278S] , thanks. 0.588

phosphorylation enrichment lookup needed for LQTFRYHGHSM [PDHA1_Y289_YF] , thanks. 0.664

phosphorylation enrichment lookup needed for "KINKMYSDRAM" , thanks. 0.53

phosphorylation enrichment lookup needed for FFVVEYRNQKP [MUC17_Y4332_D4334N_YF] , thanks. 1.32

phosphorylation enrichment lookup needed for PTYEHYANSTQ [SLC12A3_Y70] , thanks. 1.05

phosphorylation enrichment lookup needed for LHVGFYESDVM [A2M_Y708_R704H] , thanks. 1.18

phosphorylation enrichment lookup needed for MKSIKYMDKEV [CCDC60_Y41_I46V] , thanks. 0.664

phosphorylation enrichment lookup needed for YEEDSYVTRSQ [RET_Y905_K907T] , thanks. 1.21

phosphorylation enrichment lookup needed for IRKVLYANNVM [ACTA1_Y296_D294V] , thanks. 0.569

phosphorylation enrichment lookup needed for SNKLFYQLEQE [PDPR_Y110_YF] , thanks. 1.25

phosphorylation enrichment lookup needed for KIDAKYKKKIE [WDR19_Y1230] , thanks. 0.698

phosphorylation enrichment lookup needed for AHLTEYLSTHY [UQCRC1_Y219_D215H] , thanks. 0.716

phosphorylation enrichment lookup needed for "IPQEEYTATGL" , thanks. 1.16

phosphorylation enrichment lookup needed for ERLWDYGMSSS [F8_Y1728] , thanks. 0.971

phosphorylation enrichment lookup needed for EKKKYYDTKIE [CASP5_Y104] , thanks. 0.863

phosphorylation enrichment lookup needed for VATRWYQSPEL [CDKL5_Y177_R178Q] , thanks. 1

phosphorylation enrichment lookup needed for DRSSLYLVAGP [KIAA1614_Y1083_N1078D] , thanks. 1.25

phosphorylation enrichment lookup needed for SLNEEYTKNKT [MSH2_Y563] , thanks. 0.716

###

- ASSAY_SYSTEM: Hck (UniProt P08631)
- Sequence (P08631 whole entry, looked up): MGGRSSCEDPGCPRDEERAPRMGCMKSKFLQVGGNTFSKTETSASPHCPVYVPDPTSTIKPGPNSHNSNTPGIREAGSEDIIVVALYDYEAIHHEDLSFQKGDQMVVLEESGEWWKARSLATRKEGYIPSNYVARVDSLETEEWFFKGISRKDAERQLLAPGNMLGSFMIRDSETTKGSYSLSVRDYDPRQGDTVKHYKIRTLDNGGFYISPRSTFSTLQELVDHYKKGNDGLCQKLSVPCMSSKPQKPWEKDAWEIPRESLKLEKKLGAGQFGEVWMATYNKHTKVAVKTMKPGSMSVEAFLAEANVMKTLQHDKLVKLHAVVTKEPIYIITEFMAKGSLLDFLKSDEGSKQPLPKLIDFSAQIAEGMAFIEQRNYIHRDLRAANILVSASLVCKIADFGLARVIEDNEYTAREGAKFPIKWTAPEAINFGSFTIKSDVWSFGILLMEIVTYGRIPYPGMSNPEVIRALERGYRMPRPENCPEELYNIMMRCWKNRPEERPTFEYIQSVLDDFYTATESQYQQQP
- ASSAY_INFO: phosphorylation enrichment, bacterial display (enrichment ratio); higher = better substrate or ligand; peptides without Tyr show the background
RECORDED_ENDPOINT: phosphorylation enrichment

# query: phosphorylation enrichment | item MKNDLYQTPLH [NFKB1_Y582_R578K] | system: Hck (UniProt P08631) 4.13

# query: phosphorylation enrichment | item LTERGYSFTTT [ACTB_Y198] | system: Hck (UniProt P08631) 0.432

# query: phosphorylation enrichment | item FYRNVYHLASV [RBL1_Y796_K794N] | system: Hck (UniProt P08631) 0.648

# query: phosphorylation enrichment | item AVLSLCASGRT [ACTA2_Y145_Y145C] | system: Hck (UniProt P08631) 0.448

# query: phosphorylation enrichment | item ASSPVYVPTTR [GATA6_Y188] | system: Hck (UniProt P08631) 0.646

# query: phosphorylation enrichment | item SHNKYYMLVAH [MFSD8_Y134_R139H] | system: Hck (UniProt P08631) 0.533

# query: phosphorylation enrichment | item GNLLIYTEFGN [HGD_Y166_K171N] | system: Hck (UniProt P08631) 3.51

# query: phosphorylation enrichment | item DRLASYLEKVR [KRT13_Y118] | system: Hck (UniProt P08631) 0.375

# query: phosphorylation enrichment | item PFTDPYFDFEI [ZC3H18_Y371_A368T_YF] | system: Hck (UniProt P08631) 1.17

# query: phosphorylation enrichment | item VNFDDYTVNLG [GFPT1_Y367] | system: Hck (UniProt P08631) 0.528

# query: phosphorylation enrichment | item DCAAIYGNEPD [AKR1A1_Y50_E55D] | system: Hck (UniProt P08631) 1.09

# query: phosphorylation enrichment | item MPIPMYDGSQA [CARMIL1_Y637_A639G] | system: Hck (UniProt P08631) 0.53

# query: phosphorylation enrichment | item EIELAYRRRPP [GRIN2B_Y1109] | system: Hck (UniProt P08631) 0.433

# query: phosphorylation enrichment | item KDQGTYEDYVE [MYL6_Y86] | system: Hck (UniProt P08631) 0.617
